apparent KD of MS2 coat protein values by entry
- Tested on: MS2 coat protein
- experiment.summary: apparent KD of MS2 coat protein; designed switch direction (-1 OFF switch, 1 ON switch): -1; higher = weaker reporter binding
- reported.conditions: input ligand: FMN 200 uM
assay.readout: apparent KD of MS2 coat protein (nM)

[[record]]
residue_string = "AAUAACUCAGUGAGGAUAUUUGCGGGUGUUUUCGCAAAGAAGGCACAUGAGGAUCACCCAUGUCAGAGGAGCUA [Eternabot (Original) Solution 24] (Eterna round: R97, puzzle: Brourd's mod of Exclusion 4)"
quantitative_readout = 214

[[record]]
residue_string = "UCCUCACAUGAGGAUCACCCAUGUGAGGAUAUCAUGCUUCGUAGUAAACUACGAAGUGUGAGAAGGCACAUGGC [Omei Ex1 D15] (Eterna round: R97, puzzle: Exclusion 1)"
quantitative_readout = 23.9

[[record]]
residue_string = "GCAAGCUUUUUCAAUAACAACAUGAGGAUCACCCAUGUUUAAGCUAUUACUUUUGGGCUCUUUAGUGCUAGUCUUAU [JR_STOV1_Sub037] (Eterna round: R97, puzzle: Sensor, turn-off variant 1)"
quantitative_readout = 19.1

[[record]]
residue_string = "AUAAUGCAAGCAUGGUCCCACAUGAGGAUCACCCAUGUGUUCGUCUUAUAGGCUGCUGUGGCUUUUGCCUCGUUGGC [LRO Sensor-off var1-10 loose mod of D91 from Mat747] (Eterna round: R97, puzzle: Sensor, turn-off variant 1)"
quantitative_readout = 74.3

[[record]]
residue_string = "GCUGGACAAGGAUAUGCAAUCGUGCUUCGGCACGUAAGGUCACAUGAGGAUCACCCAUGUAGAAGGUGUCCAGC [E2/4-C2] (Eterna round: R97, puzzle: Exclusion 2)"
quantitative_readout = 31.3

[[record]]
residue_string = "GUUGGUAAGUCAGGAUAUCCCUGUAAUGGCAGCGGAGAAGGGACAUGAGGAUCACCCAUGUGAACCUCCGGCGGAUAAACCCGC [Ancelave] (Eterna round: R96, puzzle: Exclusion NG 1)"
quantitative_readout = 111

[[record]]
residue_string = "UUAACAUGCUGGUGAUCAUACAUGAGGAUCACCCAUGUAACAAGCUUUUUGUUCGUCUUAAUUUAAUUGAUUACUAG [Stov1/8-B1] (Eterna round: R97, puzzle: Sensor, turn-off variant 1)"
quantitative_readout = 188

[[record]]
residue_string = "CUGCUCCGUGUAGGAUAUGCCCGCACCACCCGGGCAGAAGGACAUGAGGAUCACCCAUGUAUGUUAUUAUCACGUGUGGCGCGC [Design 39] (Eterna round: R96, puzzle: Exclusion NG 1)"
quantitative_readout = 23.7

[[record]]
residue_string = "UUUAGUUCAGGAUAUGUAGAUAUUAACAUGAGGAUCACCCAUGUCGAUCCUGAAUUAACUACAGAAGGGAACAUUU [Mod of Brourd 5 - Jieux - Exclusion 5] (Eterna round: R97, puzzle: Exclusion 5)"
quantitative_readout = 69.6


====

- System: MS2 coat protein
- experiment.summary: apparent KD of MS2 coat protein; designed switch direction (-1 OFF switch, 1 ON switch): -1; higher = weaker reporter binding
- reported.conditions: input ligand: microRNA oligo, concentration not stated
apparent KD of MS2 coat protein values by entry
assay.readout: apparent KD of MS2 coat protein (nM)

[[record]]
residue_string = "CUUUUGUGAGGAUAUUAGUAGUAAAUAAAUAAAAUUACUACUGAGAAGGCACAUGAGGAUCACCCAUGUUCCUC [salish99_ex4_r3_041] (Eterna round: R96, puzzle: Exclusion 4)"
readout_units = "nM"
quantitative_readout = 32.8

[[record]]
residue_string = "AUUAAACAUGUAGGAUAUGCGUAGCAAAGCUAUGCAGAAGGACAUGAGGAUCACCCAUGUAAAAGCGUCUGAGUACAGAUGCAA [Mat - Exclusion NG 1 - Mod of JL - D88] (Eterna round: R96, puzzle: Exclusion NG 1)"
readout_units = "nM"
quantitative_readout = 40.5


====

- System: MS2 coat protein
- experiment.summary: apparent KD of MS2 coat protein; designed switch direction (-1 OFF switch, 1 ON switch): -1; higher = weaker reporter binding
- reported.conditions: input ligand: FMN 200 uM
assay.readout: apparent KD of MS2 coat protein (nM)

[[record]]
residue_string = "AGCAAGUUAGGAUAUCUUAAAGUUAGGUGAUGUCCUGUUUGAGAGAAGGAACAUGAGGAUCACCCAUGUGGUCA [Eternabot (L2) Solution 56] (Eterna round: R97, puzzle: Exclusion 4)"
assay_readout = "apparent KD of MS2 coat protein"
readout_units = "nM"
quantitative_readout = 58.3

[[record]]
residue_string = "CGAUGCUCGUGGCCACAUGAGGAUCACCCAUGUCGAGUUAGCGAGGAUAUCGGUAGCACAUAUCACGAGAAGGCGCGAACCUGA [Ex NG3 #29] (Eterna round: R96, puzzle: Exclusion NG 3)"
assay_readout = "apparent KD of MS2 coat protein"
readout_units = "nM"
quantitative_readout = 32.3

[[record]]
residue_string = "AGCCUAGCAGGAUAUGCCCGGGAUAACAUGAGGAUCACCCAUGUGACCGAUUGAUGUCCUGCAGAAGGGCUAGGGA [JL-EX5-4.00 ViennaUCT mod] (Eterna round: R97, puzzle: Exclusion 5)"
assay_readout = "apparent KD of MS2 coat protein"
readout_units = "nM"
quantitative_readout = 20.9

[[record]]
residue_string = "ACAUGAGGAUCACCCAUGUGACAAUAAUGGCUGAUACAGAGACAGGAUAUACGUGAAUAUCUAACGUAGAAGGGUCAUGACUGG [Deportation 70 - Jieux - Exclusion NG 3] (Eterna round: R96, puzzle: Exclusion NG 3)"
assay_readout = "apparent KD of MS2 coat protein"
readout_units = "nM"
quantitative_readout = 30.5


====

- Tested on: MS2 coat protein
- experiment.summary: apparent KD of MS2 coat protein; designed switch direction (-1 OFF switch, 1 ON switch): -1; higher = weaker reporter binding
- reported.conditions: Eterna round: R95; input ligand: none
assay.readout: apparent KD of MS2 coat protein (µM)

[[record]]
residue_string = "GAUGGACAUGAGGAUCACCCAUGUAAGGAUAUACGGUUGGUAGAGAGAGAGAGGAAUGGUAGAAGGUACGGAGG [JR_Exclu1_Sub052] (puzzle: Exclusion 1)"
assay_readout = "apparent KD of MS2 coat protein"
quantitative_readout = 0.0559

[[record]]
residue_string = "CACAAGCUUUUUUGAUGCAUUUUAGUGGGUGUGGGUUGGACAUGAGGAUCACCCAUGUUUAUGAAGCUCGAUCUUUU [JR_SV3TOV2_Sub081] (puzzle: Sensor v3, turn-off variant 2)"
assay_readout = "apparent KD of MS2 coat protein"
quantitative_readout = 0.124

[[record]]
residue_string = "ACGUGAUAUCUGUCGGUGGACAUGAGGAUCACCCAUGUAAGCUUUUCGCUCGUCUUAUAACCCGGUGACAGACCUUC [Edraatis] (puzzle: Sensor v3, turn-off variant 1)"
assay_readout = "apparent KD of MS2 coat protein"
quantitative_readout = 0.048


====

- Tested on: MS2 coat protein
- experiment.summary: apparent KD of MS2 coat protein; designed switch direction (-1 OFF switch, 1 ON switch): 1; higher = weaker reporter binding
- reported.conditions: input ligand: none
Label 1.0 for high-side apparent KD of MS2 coat protein (at or above 70 nM) and 0.0 for low-side apparent KD of MS2 coat protein (below it).

[[record]]
residue_string = "UGGUACAUGGGAGGAUAUCAUGCAGACAUGAGGAUCACCCAUGUAGCCAUGGAGACAUGGGUAUAUGAGAAGGCCCAUGUACCU [JL SSNG1 3.53] (Eterna round: R96, puzzle: Same State NG 2)"
tested_system = "MS2 coat protein"
class_name = 1.0

[[record]]
residue_string = "GUAGCAUACCGAGGAUAUUCAUAUUACAUGAGGAUCACCCAUGUUAUAUAGGCCAAAAGGCCUUGGGAGAAGGCGGAAUGCUAC [Xeonanis - 20 Mod9] (Eterna round: R96, puzzle: Same State NG 2)"
tested_system = "MS2 coat protein"
class_name = 0.0

[[record]]
residue_string = "UUACUCAUGUAAGGAUAUGCAGCCGAAACGGCUGCAGAAGGUACUAUAAUACAUGAGGAUCACCCAUGUCUCUAUUAUUUAGUU [Mat - Same State NG 1 - JL mod - D94] (Eterna round: R96, puzzle: Same State NG 1)"
tested_system = "MS2 coat protein"
class_name = 0.0

[[record]]
residue_string = "AACAUGUGGUGUUACAUGAGGAUCACCCAUGUGGCAAAAGCUGAGGAUAUCAUUAAACCCAUGAAUGAGAAGGUAGGAUCACAA [AK SSNG3-V2-20] (Eterna round: R96, puzzle: Same State NG 3)"
tested_system = "MS2 coat protein"
class_name = 1.0

[[record]]
residue_string = "AUUAGUAAUGCAGGAUAUGAUUAACAUGAGGAUCACCCAUGUGGUGUUGUGAGUAAGGAGAGUGAUCAGAAGGGCAUUUUUUUU [JMF's solution 28] (Eterna round: R96, puzzle: Same State NG 2)"
tested_system = "MS2 coat protein"
class_name = 1.0

[[record]]
residue_string = "GGUAGGUUACUACCAAACAUGAGGAUCACCCAUGUAGGUGGGAAGGAUAUGGUACCUUUUAGGUACCAGAAGGUCCAUACGAUC [NGss mod of JL's mod of Fisker 2] (Eterna round: R96, puzzle: Same State NG 3)"
tested_system = "MS2 coat protein"
class_name = 1.0

[[record]]
residue_string = "UAAAAGAAGUUAGGAUAUGGUGAAGUACUGUGGCCAGAAGGGACGACUAACCGAGAAAGACAUGAGGAUCACCCAUGUCCACAG [Eternabot solution 20] (Eterna round: R96, puzzle: Same State NG 1)"
tested_system = "MS2 coat protein"
class_name = 1.0

[[record]]
residue_string = "GUCGGCCUGUCGUGCUGAGGUGAUAGUUAACAUGAGGAUCACCCAUGUUGCUGUCGGGUCGUUGGGAGUUUUCUUCG [Modxample 117 - Jieux - Sensor for bsa-mir-208a] (Eterna round: R96, puzzle: Sensor for hsa-mir-208a)"
tested_system = "MS2 coat protein"
class_name = 0.0

